# credit: PubChem BioAssay

Experiment: RPMI8226 myeloma cell viability, profiling panel, resazurin fluorescence, basal, 24 h, PK04 Diversity Set (AID 1180);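 further: RPMI8826 multiple myeloma cell line at 5000 cells per well; test concentration not given here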
Settings: higher = more signal

# smiles_string, z-score
records = [
    ("COc1ccc(COC(=O)NN=C2C[C@@H](O)[C@@H](O)[C@@H]3[C@@H]4C(=O)N(C(C)(C)C)C(=O)[C@@H]4CC[C@H]23)cc1", -0.571),
    ("Cc1ccc(S(=O)(=O)N[C@H]2COC(=O)[C@@H](C)COC(=O)[C@H](C)NC(=O)CC=C[C@H]2C)cc1", 1.23),
    ("O=C1[C@H]2[C@H]3[C@H](O)[C@H](O)CC(=NOCc4ccccc4)[C@H]3CC[C@H]2C(=O)N1Cc1ccccc1", 0.719),
    ("CO[C@@H]1COC(=O)CC=C[C@H](C)COC(=O)[C@H](C)NC(=O)CC=C[C@H]1C", 0.74),
]
